Let's look at some molecules and their measured pIC50.
target: UniProt:O00329; test: HTRF PI3K biochemical assay, delta isoform; details: 0.3 nM enzyme, 100 uM ATP, 5 uM PIP2, form screened per table (Neutral or TFA salt)
Sequence (O00329 whole entry, canonical isoform): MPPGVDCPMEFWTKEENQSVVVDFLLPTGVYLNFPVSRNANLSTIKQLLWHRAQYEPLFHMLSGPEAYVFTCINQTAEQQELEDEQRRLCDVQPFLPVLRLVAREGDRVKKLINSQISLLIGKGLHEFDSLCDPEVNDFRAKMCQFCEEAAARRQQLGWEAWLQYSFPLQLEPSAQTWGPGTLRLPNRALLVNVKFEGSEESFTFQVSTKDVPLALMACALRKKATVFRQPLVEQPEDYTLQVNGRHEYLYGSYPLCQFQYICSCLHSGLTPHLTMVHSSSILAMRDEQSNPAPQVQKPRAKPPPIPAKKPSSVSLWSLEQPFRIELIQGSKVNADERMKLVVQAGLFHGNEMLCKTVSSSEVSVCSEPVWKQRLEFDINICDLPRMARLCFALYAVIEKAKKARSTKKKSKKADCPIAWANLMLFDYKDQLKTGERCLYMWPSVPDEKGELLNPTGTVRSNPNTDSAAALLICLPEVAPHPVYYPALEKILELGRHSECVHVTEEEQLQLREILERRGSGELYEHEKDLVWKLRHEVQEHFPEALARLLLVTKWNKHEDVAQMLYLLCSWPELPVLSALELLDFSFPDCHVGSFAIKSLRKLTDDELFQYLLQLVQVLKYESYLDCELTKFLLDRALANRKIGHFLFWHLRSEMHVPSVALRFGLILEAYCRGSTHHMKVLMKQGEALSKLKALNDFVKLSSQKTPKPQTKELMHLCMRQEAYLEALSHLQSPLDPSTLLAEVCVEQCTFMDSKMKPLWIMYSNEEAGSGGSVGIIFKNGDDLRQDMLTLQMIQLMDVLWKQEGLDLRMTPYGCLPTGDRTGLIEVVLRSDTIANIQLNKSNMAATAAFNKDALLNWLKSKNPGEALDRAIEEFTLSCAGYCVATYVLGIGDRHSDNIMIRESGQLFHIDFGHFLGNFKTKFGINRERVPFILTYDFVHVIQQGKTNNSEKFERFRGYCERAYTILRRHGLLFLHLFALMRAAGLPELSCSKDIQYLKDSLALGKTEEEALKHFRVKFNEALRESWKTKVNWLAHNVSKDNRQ
Sequence (P27986 whole entry partner, canonical isoform): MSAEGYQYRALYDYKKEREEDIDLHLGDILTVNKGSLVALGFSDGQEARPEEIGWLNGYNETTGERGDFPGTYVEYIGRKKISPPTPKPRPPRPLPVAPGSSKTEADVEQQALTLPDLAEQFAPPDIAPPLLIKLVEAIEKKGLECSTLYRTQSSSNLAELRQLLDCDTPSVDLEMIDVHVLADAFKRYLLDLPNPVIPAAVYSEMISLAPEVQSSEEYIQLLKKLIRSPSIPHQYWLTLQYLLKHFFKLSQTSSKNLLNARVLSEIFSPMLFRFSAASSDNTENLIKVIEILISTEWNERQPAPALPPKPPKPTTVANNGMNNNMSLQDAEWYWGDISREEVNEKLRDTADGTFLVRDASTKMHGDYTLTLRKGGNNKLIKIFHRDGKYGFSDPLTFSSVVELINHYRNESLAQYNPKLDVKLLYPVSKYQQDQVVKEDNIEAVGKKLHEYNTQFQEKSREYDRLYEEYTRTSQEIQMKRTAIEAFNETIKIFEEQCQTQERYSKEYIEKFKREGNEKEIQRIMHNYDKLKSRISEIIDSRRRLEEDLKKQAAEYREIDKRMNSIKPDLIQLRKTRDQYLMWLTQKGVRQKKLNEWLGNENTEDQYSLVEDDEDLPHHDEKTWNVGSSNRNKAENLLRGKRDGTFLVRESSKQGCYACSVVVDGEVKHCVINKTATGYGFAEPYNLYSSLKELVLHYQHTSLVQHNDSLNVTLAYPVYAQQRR
Scale for pIC50: -log10 of concentration given in mol/L; no unit attached.

[[record]]
molecule = "CN(C)CCN1CC2(CCN(c3cnc(C#N)c(-c4cnn(C)c4)n3)CC2)N(CC2CC2)C1=O"
obs_value = 8.00

[[record]]
molecule = "CCCN1C(=O)OCC12CCN(c1cnc(C#N)c(-c3cnn(C)c3)n1)CC2"
obs_value = 7.52

[[record]]
molecule = "CCC(=O)N1CCN(c2cnc(C#N)c(-c3cnn(C)c3)n2)C[C@H]1C"
obs_value = 6.82

[[record]]
molecule = "COC1CN(C(=O)N2CCN(c3cnc(C#N)c(-c4cnn(C)c4)n3)C[C@H]2C)C1"
obs_value = 6.80


Checklist item: pIC50 tested on UniProt:O00329, entry CC(C)CC1OC(=O)NCC12CCN(c1cnc(C#N)c(-c3cnn(C)c3)n1)CC2 (single isomer, unassigned) , value?
7.52
